Values compiled from ChEMBL document CHEMBL2150936.

# Test system: SF-539
# MEASUREMENT PROTOCOL: Cytotoxicity against human SF539 cells after 4 hrs by MTT assay
# Format: functional, cell-based
# DETAILS: SF-539, 4 h
RECORDED ENDPOINT: IC50
// return the numeric value with its unit appended

Recorded IC50 (compound `NCCNC(=O)C(CN)(Cc1ccc2ccccc2c1)Cc1ccc2ccccc2c1` ): 2.69 µM

* * *

# Test system: Hs-578T
# MEASUREMENT PROTOCOL: Cytotoxicity against human Hs578T cells after 4 hrs by MTT assay
# Type: functional, cell-based
RECORDED ENDPOINT: pIC50
Numbers only, as −log10 of the molar value.

The value of pIC50 measured for the compound `NCCNC(=O)C(CN)(Cc1ccc2ccccc2c1)Cc1ccc2ccccc2c1` turned out to be 5.44

* * *

# Tested on: UACC-257
# MEASUREMENT PROTOCOL: Cytotoxicity against human UACC257 cells after 4 hrs by MTT assay
# Format: functional, cell-based
# DETAILS: UACC-257, 4 h
RECORDED ENDPOINT: pIC50
One number for each entry, as −log10 of the molar value.

molecule `NCCNC(=O)C(CN)(Cc1ccc2ccccc2c1)Cc1ccc2ccccc2c1` , pIC50 observed: 5.47

* * *

# Tested on: Ramos
# MEASUREMENT PROTOCOL: Selectivity index, ratio of EC50 for human MRC5 cells to IC50 for human Ramos cells
# Format: functional
RECORDED ENDPOINT: Selectivity Index
Numbers only.

Record Selectivity Index for all entries; do not skip any.
1. CC(C)(C)c1ccc(CC(CNC(=N)N)(Cc2ccc(C(C)(C)C)cc2)C(=O)NCCCNC(=N)N)cc1
2. NCCNC(=O)C(CN)(Cc1ccc2ccccc2c1)Cc1ccc2ccccc2c1
3. CN(C)CCOC(=O)C(CN)(Cc1ccc(C(F)(F)F)cc1)Cc1ccc(C(F)(F)F)cc1
4. CN(C)CCN1CCN(C(=O)C(CN)(Cc2ccc3ccccc3c2)Cc2ccc3ccccc3c2)CC1

[1, 5.4, 3.6, 2.6]

Hi team, please reply with Selectivity Index for each item in this list.
1. CC(C)(C)c1ccc(CC(CN)(Cc2ccc(C(C)(C)C)cc2)C(=O)NCCCN)cc1
2. CN(C)CCNC(=O)C(CN)(Cc1ccc(C(F)(F)F)cc1)Cc1ccc(C(F)(F)F)cc1
3. CN(C)CCOC(=O)C(CN)(Cc1ccc(C(C)(C)C)cc1)Cc1ccc(C(C)(C)C)cc1
4. CN(C)CCN1CCN(C(=O)C(CN)(Cc2ccc(C(F)(F)F)cc2)Cc2ccc(C(F)(F)F)cc2)CC1
5. CC(C)(C)c1ccc(CC(CN)(Cc2ccc(C(C)(C)C)cc2)C(=O)NCCN)cc1

1: 2.4; 2: 4.1; 3: 2.9; 4: 3.6; 5: 0.6

* * *

# System: PC-3
# MEASUREMENT PROTOCOL: Cytotoxicity against human PC3 cells after 4 hrs by MTT assay
# Type: functional, cell-based
# DETAILS: PC-3, 4 h
RECORDED ENDPOINT: IC50
Kindly format the answer as number then unit.

Measured IC50, `NCCNC(=O)C(CN)(Cc1ccc2ccccc2c1)Cc1ccc2ccccc2c1` : 3.09 µM

* * *

# Tested on: NCI-H226
# MEASUREMENT PROTOCOL: Cytotoxicity against human NCI-H226 cells after 4 hrs by MTT assay
# Format: functional, cell-based
# DETAILS: NCI-H226, 4 h
RECORDED ENDPOINT: pIC50
One number for each entry, as −log10 of the molar value.

Looking up `NCCNC(=O)C(CN)(Cc1ccc2ccccc2c1)Cc1ccc2ccccc2c1` , I found its pIC50 recorded as 5.48
